test system: TmXdhA; construct: native full gene from cDNA (578 residues, GMC dehydrogenase domain only, no cytochrome or CBM1); ORF start MQTASKL by primer; SEC-purified, contaminated with an A. niger hydrolase (A0A370CB09); test: spectrophotometric reduction of […],4-benzoquinone at […] nm, Michaelis-Menten fit; format: biochemical, Thermothelomyces myriococcoides; conditions: 1 mM 1,4-benzoquinone, 50 mM ammonium acetate pH 5.5, 30 °C
Consider the following molecules; for each one, report its Km.
Enter your answer as a number in µM; do not include the unit.

Problem: Any idea what Km was measured for OC1OC[C@@H](O[C@@H]2OC[C@@H](O[C@@H]3OC[C@@H](O)[C@H](O)[C@H]3O)[C@H](O)[C@H]2O)[C@H](O)[C@H]1O (stereo partly drawn) ?
Result: 110

Problem: Name the reported Km value associated with the molecule OC[C@H]1O[C@@H](O[C@H]2[C@H](O)[C@@H](O)[C@H](O[C@H]3[C@H](O)[C@@H](O)[C@H](O[C@H]4[C@H](O)[C@@H](O)C(O)O[C@@H]4CO)O[C@@H]3CO)O[C@@H]2CO)[C@H](O)[C@@H](O)[C@@H]1O (stereo partly drawn)
Result: 530

Problem: I have this molecule here, OC1OC[C@@H](O[C@@H]2OC[C@@H](O[C@@H]3OC[C@@H](O[C@@H]4OC[C@@H](O)[C@H](O)[C@H]4O)[C@H](O)[C@H]3O)[C@H](O)[C@H]2O)[C@H](O)[C@H]1O (stereo partly drawn) , and I need its recorded Km.
Result: 130

Problem: Please report the recorded Km for OC[C@H]1O[C@@H](O[C@H]2[C@H](O)[C@@H](O)[C@H](O[C@H]3[C@H](O)[C@@H](O)C(O)O[C@@H]3CO)O[C@@H]2CO)[C@H](O)[C@@H](O)[C@@H]1O (stereo partly drawn) .
Result: 430

Problem: I have this molecule here, OC[C@H]1O[C@@H](O[C@H]2[C@H](O)[C@@H](O)C(O)O[C@@H]2CO)[C@H](O)[C@@H](O)[C@@H]1O (stereo partly drawn) , and I need its recorded Km.
Result: 360

Problem: Quick one: Km for OC1OC[C@@H](O[C@@H]2OC[C@@H](O)[C@H](O)[C@H]2O)[C@H](O)[C@H]1O (stereo partly drawn) ?
Result: 160

These measurements were taken from paper PMC9730589.
